# IC50 at 48 h listing for each entry below
assay: Cytotoxicity against HEK293 cells assessed as reduction in cell viability incubated for 48 hrs by MTT assay
Format: toxicity, cell-based
condition_details: human

Sample answers from the record:
# structure_smiles_string, reported
rows = [
    ("Nc1cccc(-c2nnn(Cc3cccc(Cl)c3)n2)c1", "> 100 µM"),
    ("O=[N+]([O-])c1cccc(-c2nnn(Cc3ccc(Br)cc3)n2)c1", "> 100 µM"),
    ("Nc1cccc(-c2nnn(Cc3ccc(Cl)cc3)n2)c1", "91 µM"),
    ("O=[N+]([O-])c1cccc(-c2nnn(Cc3ccc(Cl)cc3)n2)c1", "> 100 µM"),
    ("Nc1cccc(-c2nnn(Cc3ccc(Br)cc3)n2)c1", "> 100 µM"),
]

Kindly review the next molecule as well.
Prompt: Output IC50 at 48 h of O=[N+]([O-])c1cccc(-c2nnn(Cc3ccccc3Cl)n2)c1
Completion: > 100 µM

====

Test system: HT-29
assay: Antiproliferative activity against human HT-29 cells assessed as relative VEGFR-2 protein expression in whole cell at 100 uM incubated for 48 hrs by flow cytometry analysis relative to control
Type: functional
reported_metric: Activity

Sample answers from the record:
# structure_smiles_string, Activity
records = [
    ("Nc1cccc(-c2nnn(Cc3cccc(Br)c3)n2)c1", ">100%"),
    ("COc1cccc(Cn2nnc(-c3cccc(N)c3)n2)c1", ">100%"),
    ("O=[N+]([O-])c1cccc(-c2nnn(Cc3ccc(Cl)cc3)n2)c1", "45%"),
]

Prompt: Output Activity of O=[N+]([O-])c1cccc(-c2nnn(Cc3ccccc3)n2)c1
Completion: >100%

Prompt: Output Activity of COc1ccccc1Cn1nnc(-c2cccc(N)c2)n1
Completion: >100%

Prompt: Output Activity of Cc1ccccc1Cn1nnc(-c2cccc([N+](=O)[O-])c2)n1
Completion: 72%

Prompt: Output Activity of COc1cccc(Cn2nnc(-c3cccc([N+](=O)[O-])c3)n2)c1
Completion: 42%

Prompt: Output Activity of COc1ccc(Cn2nnc(-c3cccc(N)c3)n2)cc1
Completion: 75%

Prompt: Output Activity of Nc1cccc(-c2nnn(Cc3ccccc3Br)n2)c1
Completion: 92%

Prompt: Output Activity of O=[N+]([O-])c1cccc(-c2nnn(Cc3ccccc3Br)n2)c1
Completion: 75%

Prompt: Output Activity of Nc1cccc(-c2nnn(Cc3ccc(Br)cc3)n2)c1
Completion: >100%

Prompt: Output Activity of Cc1ccc(Cn2nnc(-c3cccc([N+](=O)[O-])c3)n2)cc1
Completion: 65%

Prompt: Output Activity of O=[N+]([O-])c1cccc(-c2nnn(Cc3cccc(Cl)c3)n2)c1
Completion: >100%

Prompt: Output Activity of Nc1cccc(-c2nnn(Cc3cccc(Cl)c3)n2)c1
Completion: 99%

Prompt: Output Activity of COc1ccccc1Cn1nnc(-c2cccc([N+](=O)[O-])c2)n1
Completion: 55%

Prompt: Output Activity of O=[N+]([O-])c1cccc(-c2nnn(Cc3ccc(Br)cc3)n2)c1
Completion: 71%

Prompt: Output Activity of Cc1cccc(Cn2nnc(-c3cccc([N+](=O)[O-])c3)n2)c1
Completion: 84%

====

Test system: HT-29
assay: Antiproliferative activity against human HT-29 cells assessed as reduction in cell viability incubated for 48 hrs by MTT assay
Format: functional, cell-based
condition_details: HT-29, 48 h
# IC50 listing for each entry below
A number alone suffices; assume µM.

Sample answers from the record:
# structure_smiles_string, reported_metric, unit_descriptor, reported
data = [
    ("O=[N+]([O-])c1cccc(-c2nnn(Cc3ccccc3Cl)n2)c1", "IC50", "µM", 81),
    ("Nc1cccc(-c2nnn(Cc3ccc(Cl)cc3)n2)c1", "IC50", "µM", 72),
]

Kindly review the next compound as well.
Prompt: Output IC50 of Nc1cccc(-c2nnn(Cc3cccc(Cl)c3)n2)c1
Completion: 81
